Below are Kd values recorded for FKBP12 (Homo sapiens (Human)).

Solved entries:
[[record]]
compound = "CCOC(=O)COC1CCC(CC(C)C2CC(=O)C(C)C=C(C)C(O)C(OC)C(=O)C(C)CC(C)C=CC=CC=C(C)C(OCC3CC3)CC3CCC(C)C(O)(O3)C(=O)C(=O)N3CCCCC3C(=O)O2)CC1OC (stereo not shown) [Compound 50]"
reported_result = "> 1 nM"

[[record]]
compound = "CO[C@@H]1C[C@H](C[C@@H](C)[C@@H]2CC(=O)[C@H](C)/C=C(\\C)[C@@H](O)[C@@H](OC)C(=O)[C@H](C)C[C@H](C)/C=C/C=C/C=C(\\C)[C@@H](OCCC3CCS(=O)(=O)C3)C[C@@H]3CC[C@@H](C)[C@@](O)(O3)C(=O)C(=O)N3CCCC[C@H]3C(=O)O2)CC[C@H]1O (stereo partly shown)"
reported_result = "< 0.3 nM"

[[record]]
compound = "CO[C@@H]1C[C@H](C[C@@H](C)[C@@H]2CC(=O)[C@H](C)/C=C(\\C)[C@@H](O)[C@@H](OC)C(=O)[C@H](C)C[C@H](C)/C=C/C=C/C=C(\\C)[C@H](OCCCO)C[C@@H]3CC[C@@H](C)[C@@](O)(O3)C(=O)C(=O)N3CCCC[C@H]3C(=O)O2)CC[C@H]1OCCCS(C)(=O)=O"
reported_result = "0.3 to 1 nM"

[[record]]
compound = "COCCOCCS(=O)(=O)NC1CC2CCC(C)C(O)(O2)C(=O)C(=O)N2CCCCC2C(=O)OC(C(C)CC2CCC(OCCCO)C(OC)C2)CC(=O)C(C)C=C(C)C(O)C(OC)C(=O)C(C)CC(C)C=CC=CC=C1C (stereo not shown)"
reported_result = "0.3 to 1 nM"

[[record]]
compound = "CO[C@@H]1C[C@H](C[C@@H](C)[C@@H]2CC(=O)[C@H](C)/C=C(\\C)[C@@H](O)[C@@H](OC)C(=O)[C@H](C)C[C@H](C)/C=C/C=C/C=C(\\C)[C@@H](OCC3CCS(=O)(=O)C3)C[C@@H]3CC[C@@H](C)[C@@](O)(O3)C(=O)C(=O)N3CCCC[C@H]3C(=O)O2)CC[C@H]1O (stereo partly shown)"
reported_result = "< 0.3 nM"

[[record]]
compound = "COC1CC(CC(C)C2CC(=O)C(C)C=C(C)C(O)C(OC)C(=O)C(C)CC(C)C=CC=CC=C(C)C(OC3CCOCC3)CC3CCC(C)C(O)(O3)C(=O)C(=O)N3CCCCC3C(=O)O2)CCC1O (stereo not shown)"
reported_result = "< 0.3 nM"


Prompt line: Kd for COC1CC(CC(C)C2CC(=O)C(C)C=C(C)C(O)C(OC)C(=O)C(C)CC(C)C=CC=CC=C(C)C(OC3CCOC3)CC3CCC(C)C(O)(O3)C(=O)C(=O)N3CCCCC3C(=O)O2)CCC1O (stereo not shown) ?
Response line: < 0.3 nM

Prompt line: What about COC1CC(CC(C)C2CC(=O)C(C)C=C(C)C(O)C(OC)C(=O)C(C)CC(C)C=CC=CC=C(C)C(OCC3CC3)CC3CCC(C)C(O)(O3)C(=O)C(=O)N3CCCCC3C(=O)O2)CCC1OCCCO (stereo not shown) [Compound 42] ?
Response line: > 1 nM
